System: Escherichia coli TOP10
Experiment: shrunken log2 fold change of peptide-encoding DNA abundance (4.5 h post-induction vs induction); higher = less antimicrobial activity (less host growth inhibition)
Details: time post-induction: 4.5 h; library: site-saturation at positions 5, 18, 19, 20
property_label: shrunken log2 fold change
Answer using only a numeral; do not append any unit.

RRIRERPPRLPRPRPRPYTQPRP: -0.0502

Reported shrunken log2 fold change of RRIRYRPPRLPRPRPRPDEAPRP : 0.033

Reported shrunken log2 fold change of RRIRKRPPRLPRPRPRPYNRPRP : -0.0322

Reported shrunken log2 fold change of RRIRNRPPRLPRPRPRPSAYPRP : -0.42

Reported shrunken log2 fold change of RRIRPRPPRLPRPRPRPTEMPRP : 0.218

Reported shrunken log2 fold change of RRIRRRPPRLPRPRPRPDCRPRP : 0.0322

###

Tested on: Escherichia coli TOP10
Assay: shrunken log2 fold change of peptide-encoding DNA abundance (4.5 h post-induction vs induction); higher = less antimicrobial activity (less host growth inhibition)
Conditions: time post-induction: 4.5 h; library: site-saturation at positions 5, 18, 19, 20
property_label: shrunken log2 fold change
Answer using only a numeral; do not append any unit.

RRIRTRPPRLPRPRPRPVVKPRP: -0.189
RRIRARPPRLPRPRPRPNWEPRP: -0.0132

Turning to the following sequence.
Reported shrunken log2 fold change of RRIRSRPPRLPRPRPRPWMGPRP : -0.238

###

A collection of sequences and their measured shrunken log2 fold change
System: Escherichia coli TOP10
Experiment: shrunken log2 fold change of peptide-encoding DNA abundance (4.5 h post-induction vs induction); higher = less antimicrobial activity (less host growth inhibition)
Settings: time post-induction: 4.5 h; library: site-saturation at positions 5, 18, 19, 20

Here is how some sequences turned out for shrunken log2 fold change.
RRIRARPPRLPRPRPRPKTTPRP: 0.0562
RRIRCRPPRLPRPRPRPRLIPRP: 0.0496
RRIRDRPPRLPRPRPRPTGGPRP: 0.166

Reported shrunken log2 fold change of RRIRFRPPRLPRPRPRPPQSPRP : 0.334

Reported shrunken log2 fold change of RRIRIRPPRLPRPRPRPNANPRP : -0.252

Reported shrunken log2 fold change of RRIRPRPPRLPRPRPRPDNNPRP : -0.512

Reported shrunken log2 fold change of RRIRFRPPRLPRPRPRPHFPPRP : -0.212

Reported shrunken log2 fold change of RRIRSRPPRLPRPRPRPRKVPRP : 1.58

###

A collection of sequences and their measured shrunken log2 fold change
Test system: Escherichia coli TOP10;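 note: peptides expressed intracellularly from a pBAD plasmid library in pooled LB shake-flask culture, induced with 0.3% L-arabinose, DNA abundance read by NGS, three biological replicates, DESeq2 with apeglm shrinkage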
Assay: shrunken log2 fold change of peptide-encoding DNA abundance (4.5 h post-induction vs induction); higher = less antimicrobial activity (less host growth inhibition)
Conditions: time post-induction: 4.5 h; library: site-saturation at positions 5, 18, 19, 20
Answer using only a numeral; do not append any unit.

RRIRERPPRLPRPRPRPYCWPRP: -0.509
RRIRGRPPRLPRPRPRPVLDPRP: 0.419
RRIRHRPPRLPRPRPRPHRLPRP: -0.0453
RRIRVRPPRLPRPRPRPIRNPRP: -0.0718
RRIRARPPRLPRPRPRPDDLPRP: -0.00225
RRIRPRPPRLPRPRPRPHGEPRP: -0.159

Reported shrunken log2 fold change of RRIRPRPPRLPRPRPRPFDFPRP : -0.206

Reported shrunken log2 fold change of RRIRERPPRLPRPRPRPILPPRP : -0.182
